Molecular target: human GPR139 receptor (Homo sapiens, UniProt Q6DWJ6)
Construct: expressed in transfected cells; host or cells: T-REx-CHO (Thermo Fisher Scientific), doxycycline-induced
Sequence (Q6DWJ6 whole entry): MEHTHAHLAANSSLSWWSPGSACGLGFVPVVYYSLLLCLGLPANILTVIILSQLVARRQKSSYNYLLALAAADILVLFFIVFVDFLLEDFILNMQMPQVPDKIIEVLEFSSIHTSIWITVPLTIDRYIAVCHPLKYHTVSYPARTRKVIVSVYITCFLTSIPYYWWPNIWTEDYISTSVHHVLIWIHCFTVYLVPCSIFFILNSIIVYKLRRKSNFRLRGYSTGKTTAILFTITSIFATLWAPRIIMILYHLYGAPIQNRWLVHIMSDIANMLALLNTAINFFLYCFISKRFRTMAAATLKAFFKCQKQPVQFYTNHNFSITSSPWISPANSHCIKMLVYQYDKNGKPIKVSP
Test: Measurement of GPR139 Activation Via Calcium Signaling (FLIPR, T-REx-CHO cells)
Type: cell-based
Settings: T-REx-CHO cells stably expressing human GPR139, 11-point dose response, 10 μM maximum concentration, read-out: GPR139 Potency (pEC50) (converted)
ENDPOINT: EC50 (nM)
Quick note: give the figure in nM, leave out the unit.

Solved cases below.
COMPOUND	RESULT
COc1ccc([C@H](C)NC(=O)Cn2ncc3c(c(C)nn3C3CC3)c2=O)cc1C	57.5
Cc1nn(CC(=O)N[C@@H](C)c2ccc(C(F)(F)F)cn2)c(=O)c2c1c(C)nn2C	209
Cc1ccc([C@H](C)NC(=O)Cn2ncc3c(c(C)nn3C(C)C)c2=O)c(F)c1	57.5

Which EC50 value belongs to `[2H]C([2H])([2H])c1ccc([C@H](C)NC(=O)Cn2ncc3ccn(C)c3c2=O)cc1` ?
17.8

Try this compound next: `CC(C)c1nn(CC(=O)N[C@@H](C)c2ccc(C(F)(F)F)cc2)c(=O)c2c1cnn2C(C)(C)C`
2140

Try this compound next: `Cc1ccc([C@H](C)NC(=O)Cn2ncc3c(c(C(F)(F)F)nn3C)c2=O)cc1F`
41.7

Try this compound next: `C[C@H](NC(=O)Cn1ncc2c(c(C3CC3)nn2C)c1=O)c1ccc(C(F)(F)F)cc1`
224

Try this compound next: Cc1nn(C2CC2)c2c(=O)n(CC(=O)N3CCCC3c3ccc(Cl)cc3)ncc12 (centres unmarked)
741

###

Target: human GPR139 receptor (Homo sapiens)
Construct: expressed in transfected cells; host or cells: T-REx-CHO (Thermo Fisher Scientific), doxycycline-induced
Test: GPR139 Competition Binding (membrane-based, tritium-labeled ligand)
Conditions: T-REx-CHO membranes with human GPR139; 6.5 nM tritium-labeled ligand; 11-point curve, 30 μM maximum concentration; read-out: GPR139 Binding Affinity (pKi) (converted)
ENDPOINT: Ki (nM)
Quick note: give the figure in nM, leave out the unit.

Solved cases below.
COMPOUND STRUCTURE STRING	READOUT UNITS	RESULT
Cc1ccc([C@H](C)NC(=O)Cn2ncc3c(cnn3C(C)C)c2=O)cc1	nM	2190
Cc1ccc([C@H](C)NC(=O)Cn2ncc3c(c(C4CC4)nn3C)c2=O)c(F)c1	nM	7.08
COc1ccc([C@H](C)NC(=O)Cn2nc(C)c3c(c(C)nn3C(C)C)c2=O)cc1	nM	3090

# context switch: different compound, same Ki
Which Ki value belongs to `Cc1nn(C(C)C)c2c(=O)n(CC(=O)N[C@@H](C)c3ccc(C(F)(F)F)cn3)ncc12` ?
10000

###

Molecular target: human GPR139 receptor (Homo sapiens, UniProt Q6DWJ6)
Construct: expressed in transfected cells; host or cells: T-REx-CHO (Thermo Fisher Scientific), doxycycline-induced
Test: Measurement of GPR139 Activation Via Calcium Signaling (FLIPR, T-REx-CHO cells)
Type: cell-based
Details: T-REx-CHO cells stably expressing human GPR139, 11-point dose response, 10 μM maximum concentration, read-out: GPR139 Potency (pEC50) (converted)
ENDPOINT: log10 EC50 (log10 of the value in nM)
Annotation: log10 of EC50, nM basis.

MOLECULE	log10 EC50
Cc1ccc([C@H](C)NC(=O)Cn2ncc3c(c(C)cn3C3CC3)c2=O)cc1F [Example 62]	1.40

Param readout = log10 EC50; param system = human GPR139 receptor (Homo sapiens, UniProt Q6DWJ6); param query = Cc1nn(C2CC2)c2cnn(CC(=O)N[C@@H](C)c3cc(F)cc(F)c3)c(=O)c12 [Example 135] ; response: value
1.15

Try this molecule next: Cc1nn(C2CC2)c2cnn(CC(=O)N[C@H](C)c3ccc(C(F)(F)F)cc3)c(=O)c12 [Example 160]
2.47

Try this molecule next: C[C@H](NC(=O)Cn1nc(C2CC2)c2cnn(-c3ccccc3)c2c1=O)c1ccc(C(F)(F)F)cc1 [Example 44]
3.56

Try this molecule next: Cc1nn(CC(=O)N[C@@H](C)c2ccc(OC(F)(F)F)cc2)c(=O)c2c1cnn2-c1ccccc1 [Example 5]
2.35

Try this molecule next: Cc1ccc([C@H](C)NC(=O)Cn2ncc3c(cnn3C(C)C)c2=O)cc1 [Example 89]
1.65

Try this molecule next: Cc1cn(C2CC2)c2cnn(CC(=O)N[C@@H](C)c3ccc(C(F)(F)F)cc3)c(=O)c12 [Example 144]
1.92

Try this molecule next: Cc1ccc([C@H](C)NC(=O)Cn2ncc3c(ncn3C)c2=O)cc1 [Example 140]
2.72

Try this molecule next: Cc1nn(C2CC2)c2cnn(CC(=O)NC(C)c3ccc4c(c3)CCCO4)c(=O)c12 (centres unmarked) [Example 104]
1.79

Try this molecule next: Cc1nn(C)c2cnn(CC(=O)N[C@@H](C)c3c(F)cccc3F)c(=O)c12 [Example 126]
2.51

Try this molecule next: Cc1nn(CC(=O)N[C@@H](C)c2ccc(C(F)(F)F)cc2)c(=O)c2cnn(C3CC3)c12 [Example 78]
1.90
